Origin of the recorded values: patent US12398154B2

Items are presented alongside their recorded pIC50.
# System: pERK in PSN1 cells
# protocol-description: Inhibition of KRas phosphorylation of ERK (Cisbio HTRF pERK assay)
# experimental-setup: Homo sapiens, PSN1, 3 h, read-out: Inhibition (HTRF IC50) of KRas-mediated Phosphorylation of ERK, PSN1
Just the number, please; pIC50 means minus log10 of the concentration in mol/L.

Completed entries (count: 4):
[[record]]
compound = "C[C@@]1(O)CCCN(c2nc(OC[C@@]34CCCN3C[C@H](F)C4)nc3c(F)c(-c4cc(O)cc5ccc(F)c(F)c45)ncc23)C1"
experimental_endpoint = "pIC50"
experimental_value = 6.07

[[record]]
compound = "CCc1c(F)ccc2cc(O)cc(-c3ncc4c(N5CCCC(C#N)CC5)nc(OC[C@@]56CCCN5C[C@H](F)C6)nc4c3F)c12 (stereo partly drawn)"
experimental_endpoint = "pIC50"
experimental_value = 5.26

[[record]]
compound = "CCc1c(F)ccc2cc(O)cc(-c3ncc4c(N5CCC[C@@H](O)[C@H]5C)nc(OC[C@@]56CCCN5C[C@H](F)C6)nc4c3F)c12"
experimental_endpoint = "pIC50"
experimental_value = 5.17

[[record]]
compound = "O=C1NC(=O)[C@]2(CCCN(c3nc(OC[C@@]45CCCN4C[C@H](F)C5)nc4c(F)c(-c5cc(O)cc6ccc(F)c(Cl)c56)ncc34)C2)N1"
experimental_endpoint = "pIC50"
experimental_value = 5.60


Reported pIC50 for CCc1c(F)ccc2cc(O)cc(-c3ncc4c(N5CCOCC(C)(CO)C5)nc(OC[C@@]56CCCN5C[C@H](F)C6)nc4c3F)c12 (stereo partly drawn) : what is it? 5.08

Another compound: CCc1c(F)ccc2cc(O)cc(-c3ncc4c(N5CCC[C@@](C)(O)C5)nc(OCC5(CN6CCOCC6)CC5)nc4c3F)c12 6.15

Another compound: CCc1c(F)ccc2cc(O)cc(-c3ncc4c(N5CCCC(O)(C(F)(F)F)C5)nc(OC[C@@]56CCCN5C[C@H](F)C6)nc4c3F)c12 (stereo partly drawn) 5.37

###

# system-under-test: KRas G12V (Homo sapiens, UniProt P01116, G12V)
# Sequence (P01116 1-169 isoform P01116-2 G12V): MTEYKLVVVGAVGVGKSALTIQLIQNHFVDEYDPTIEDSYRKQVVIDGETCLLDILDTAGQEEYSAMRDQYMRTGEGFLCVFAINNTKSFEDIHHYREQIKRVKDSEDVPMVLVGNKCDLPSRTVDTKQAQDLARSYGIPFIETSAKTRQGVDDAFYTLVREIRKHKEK
# protocol-description: biochemical
pIC50: −log10 of the molar value.
Values of pIC50 greater than or equal to 6 map to class 1; values below map to class 0.

[[record]]
compound = "CCc1c(F)ccc2cc(O)cc(-c3ncc4c(N5CCCC6(CCC(F)(F)C6)C5)nc(OC[C@@]56CCCN5C[C@H](F)C6)nc4c3F)c12 (stereo partly shown)"
discrete_label = "class 1"


Check the entry CCc1c(F)ccc2cc(O)cc(-c3ncc4c(N5CCCC6(C5)NC(=O)NC6=O)nc(OC[C@@]56CCCN5C[C@H](F)C6)nc4c3F)c12 (stereo partly shown) : does pIC50 equal or exceed 6? class 1

Another compound: CN(C)C(=O)c1cc2n(n1)CCCN(c1nc(OC[C@@]34CCCN3C[C@H](F)C4)nc3c(F)c(-c4cc(O)cc5ccc(F)c(Br)c45)ncc13)C2 class 1

Another compound: CCc1c(F)ccc2cc(O)cc(-c3ncc4c(N5CC6CCC(C6)C5)nc(OC[C@@]56CCCN5C[C@H](F)C6)nc4c3F)c12 class 1

###

Items are presented alongside their recorded pIC50.
# system-under-test: KRas G12R (Homo sapiens, UniProt P01116, G12R);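 also: TR-FRET displacement assay of compound binding to KRas, read after one hour at room temperature, potency from a four-parameter fit of percent-of-control values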
# Sequence (P01116 1-169 isoform P01116-2 G12R): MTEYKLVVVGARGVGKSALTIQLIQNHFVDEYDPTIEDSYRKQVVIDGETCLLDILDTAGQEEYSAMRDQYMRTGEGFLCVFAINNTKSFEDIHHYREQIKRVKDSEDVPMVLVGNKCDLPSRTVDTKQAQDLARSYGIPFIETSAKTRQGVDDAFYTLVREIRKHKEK
# protocol-description: biochemical
Just the number, please; pIC50 means minus log10 of the concentration in mol/L.

[[record]]
molecule = "C#Cc1c(F)ccc2cccc(-c3ncc4c(N5CCC[C@@](C)(O)C5)nc(OCC56CCCN5CCC6)nc4c3F)c12"
system_under_test = "KRas G12R (Homo sapiens, UniProt P01116, G12R)"
experimental_endpoint = "pIC50"
experimental_value = 6.96

[[record]]
molecule = "O=C1NC(=O)C2(CCCN(c3nc(OCC45CCCN4CCC5)nc4c(F)c(-c5cccc6cccc(Cl)c56)ncc34)C2)N1 (stereo not drawn)"
system_under_test = "KRas G12R (Homo sapiens, UniProt P01116, G12R)"
experimental_endpoint = "pIC50"
experimental_value = 7.74


Reported pIC50 for OC1CN(c2nc(OCC34CCCN3CCC4)nc3c(F)c(-c4cccc5cccc(F)c45)ncc23)Cc2ccnn2C1 (stereo not drawn) : what is it? 4.82

Another molecule: Fc1c(-c2cccc3cccc(F)c23)ncc2c(N3CC=CCC3)nc(OCC34CCCN3CCC4)nc12 5.12

###

# system-under-test: KRas G12V (Homo sapiens, UniProt P01116, G12V);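 also: KRas binding measured by TR-FRET displacement at room temperature, IC50 fitted from percent of control values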
# protocol-description: biochemical
Items are presented alongside their recorded IC50.
Please give a number only; it is taken to be in nM.

Completed entries (count: 2):
[[record]]
compound = "CCc1c(F)ccc2cccc(-c3ncc4c(N5CCCC6(CNC(=O)C6)C5)nc(OC[C@@]56CCCN5C[C@H](F)C6)nc4c3F)c12 (stereo partly drawn) [Example 37]"
unit_annotation = "nM"
experimental_value = 57

[[record]]
compound = "Cc1cc(N)nc(-c2ncc3c(N4CCC[C@@](C)(O)C4)nc(OC[C@@H]4CCCN4C)nc3c2F)c1C(F)(F)F [Example 435]"
unit_annotation = "nM"
experimental_value = 5440


Reported IC50 for C[C@H]1C[C@H]1c1c(Cl)cc2[nH]ncc2c1-c1ncc2c(N3CCC[C@@](C)(O)C3)nc(OC[C@@]34CCCN3C[C@H](F)C4)nc2c1F (racemic) [Example 153] : what is it? 5

###

Items are presented alongside their recorded IC50.
# Test system: pERK in HCT116 cells
# protocol-description: Inhibition of KRas phosphorylation of ERK (Cisbio HTRF pERK assay)
# experimental-setup: Homo sapiens, HCT-116, read-out: Inhibition (HTRF IC50) of KRas-mediated Phosphorylation of ERK, HCT116
Please give a number only; it is taken to be in nM.

Completed entries (count: 6):
[[record]]
molecule = "CCc1c(F)ccc2cc(O)cc(-c3ncc4c(NCCC5CNC(=O)C5)nc(OC[C@@]56CCCN5C[C@H](F)C6)nc4c3F)c12 (stereo partly drawn)"
unit_annotation = "nM"
experimental_value = 6490

[[record]]
molecule = "CCc1c(F)ccc2cc(O)cc(-c3ncc4c(N5CCCC6(CSC6)C5)nc(OC[C@@]56CCCN5C[C@H](F)C6)nc4c3F)c12"
unit_annotation = "nM"
experimental_value = 77

[[record]]
molecule = "C#Cc1c(F)ccc2cc(O)cc(-c3ncc4c(NCc5c[nH]c6ncccc56)nc(OC[C@@]56CCCN5C[C@H](F)C6)nc4c3F)c12"
unit_annotation = "nM"
experimental_value = 115

[[record]]
molecule = "CCc1c(F)ccc2cc(O)cc(-c3ncc4c(N5CCC[C@@](C)(O)C5)nc(OCC5(CN6CCCC6)CC5)nc4c3F)c12"
unit_annotation = "nM"
experimental_value = 47

[[record]]
molecule = "CCc1c(F)ccc2cc(O)cc(-c3ncc4c(N5CCCC(O)CC5)nc(OC[C@@]56CCCN5C[C@H](F)C6)nc4c3F)c12 (stereo in doubt)"
unit_annotation = "nM"
experimental_value = 133

[[record]]
molecule = "O=C1NC(=O)C2CN(c3nc(OC[C@@]45CCCN4C[C@H](F)C5)nc4c(F)c(-c5cc(O)cc6ccc(F)c(Br)c56)ncc34)CC12 (stereo partly drawn)"
unit_annotation = "nM"
experimental_value = 1380


Reported IC50 for CCc1c(F)ccc2cc(O)cc(-c3ncc4c(N5CCC[C@@](C)(O)C5)nc(OCC5(CN6CCN(C)CC6)CC5)nc4c3F)c12 : what is it? 208

Another molecule: CC1(O)COCCN(c2nc(OC[C@@]34CCCN3C[C@H](F)C4)nc3c(F)c(-c4cc(O)cc5ccc(F)c(Cl)c45)ncc23)C1 (stereo partly drawn) 319

Another molecule: CCc1c(F)ccc2cc(O)cc(-c3ncc4c(N5CCCC6(CCC6O)C5)nc(OC[C@@]56CCCN5C[C@H](F)C6)nc4c3F)c12 (stereo partly drawn) 346

Another molecule: CCc1c(F)ccc2cc(O)cc(-c3ncc4c(N5CCCn6nc(C(=O)NC)cc6C5)nc(OC[C@@]56CCCN5C[C@H](F)C6)nc4c3F)c12 826

Another molecule: CCc1c(F)ccc2cc(O)cc(-c3ncc4c(N5CCC[C@@](C)(O)C5)nc(OC[C@@H]5CCCN5C)nc4c3F)c12 155

Another molecule: CCc1c(F)ccc2cc(O)cc(-c3ncc4c(N5CCCCC(S(C)(=O)=O)C5)nc(OC[C@@]56CCCN5C[C@H](F)C6)nc4c3F)c12 (stereo partly drawn) 284

Another molecule: CCc1c(F)ccc2cc(O)cc(-c3ncc4c(N5CCC[C@]6(CC(=O)N6)C5)nc(OCC5(CN6CCCC6)CC5)nc4c3F)c12 6360

Another molecule: CCc1c(F)ccc2cc(O)cc(-c3ncc4c(N5CCCn6nc(NC)cc6C5)nc(OC[C@@]56CCCN5C[C@H](F)C6)nc4c3F)c12 999

Another molecule: C#Cc1c(F)ccc2cc(O)cc(-c3ncc4c(N5CCCC6(CC(O)C6)C5)nc(OC[C@@]56CCCN5C[C@H](F)C6)nc4c3F)c12 (stereo partly drawn) 68

Another molecule: CCc1c(F)ccc2cc(O)cc(-c3ncc4c(N5CCCCCC(S(C)(=O)=O)C5)nc(OC[C@@]56CCCN5C[C@H](F)C6)nc4c3F)c12 (stereo partly drawn) 26

Another molecule: CCc1c(F)ccc2cc(O)cc(-c3ncc4c(N5CCOCC(C)(CO)C5)nc(OC[C@@]56CCCN5C[C@H](F)C6)nc4c3F)c12 (stereo partly drawn) 525

Another molecule: CCc1c(F)ccc2cc(O)cc(-c3ncc4c(N5CCC[C@@](C)(O)C5)nc(OC[C@@]56CCCN5[C@H](COC(=O)N5CCOCC5)CC6)nc4c3F)c12 45
